- Tgt: hAM2 receptor (CALCRL:RAMP3) (Homo sapiens, UniProt O60896+Q16602)
- Construct: expressed in transfected cells; host or cells: GeneBLAzer CALCRL:RAMP3-CRE-bla Freestyle 293F
- Sequence (Q16602 23-461): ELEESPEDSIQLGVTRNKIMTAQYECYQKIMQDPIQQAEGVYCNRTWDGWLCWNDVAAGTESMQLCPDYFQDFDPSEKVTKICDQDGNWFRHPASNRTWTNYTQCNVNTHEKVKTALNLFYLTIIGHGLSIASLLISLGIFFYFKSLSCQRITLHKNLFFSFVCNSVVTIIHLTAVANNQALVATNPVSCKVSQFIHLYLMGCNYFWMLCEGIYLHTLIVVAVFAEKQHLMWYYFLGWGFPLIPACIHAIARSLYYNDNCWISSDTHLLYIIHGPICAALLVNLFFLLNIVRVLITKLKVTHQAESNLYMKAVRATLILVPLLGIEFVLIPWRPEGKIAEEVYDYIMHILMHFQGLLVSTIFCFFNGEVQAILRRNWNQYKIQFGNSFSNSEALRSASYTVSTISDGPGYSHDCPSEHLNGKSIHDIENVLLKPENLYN
- Sequence (O60896 24-148): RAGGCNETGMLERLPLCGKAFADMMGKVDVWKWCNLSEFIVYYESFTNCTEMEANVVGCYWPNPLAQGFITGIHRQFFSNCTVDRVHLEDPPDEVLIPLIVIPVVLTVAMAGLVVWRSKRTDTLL
- Protocol summary: AM2 receptor antagonist activity measured by cAMP assay (HTRF)
- Format: cell-based
- Condition parameters: GeneBLAzer CALCRL:RAMP3-CRE-bla Freestyle 293F cells; agonist human adrenomedullin; read-out: hAM2-R IC50 Ave
Bridge positions count the residues as written; N and C are the ends. Square brackets hold non-standard residues; d marks the D form. Peptide text beside a SMILES is read from it. * marks the point of attachment. 3Pal = N[C@@H](Cc1cccnc1)C(=O)O; Picolinoyl = O=C(c1ccccn1)*
Observed property: IC50 (nM)
Expressed in nM, but write only the number.

Q: Fill in the blank: the reported IC50 of CC(C)[C@@H]1NC(=O)[C@H](CC(=O)O)NC(=O)[C@H](CCCNC(=N)N)NC(=O)[C@@H](NC(=O)[C@H](Cc2ccc(O)cc2)NC(=O)[C@H](NC(=O)c2ccccn2)C(C)C)CSSC[C@@H](C(=O)N[C@@H](Cc2cccnc2)C(N)=O)NC(=O)[C@H](Cc2cccnc2)NC(=O)[C@@H]2CCCN2C(=O)CNC1=O [Compound 3] (Picolinoyl-[dV]YCRDVGP[3Pal]C[3Pal]-NH2; disulfide 3-10) is ____.
Ans: 35
